Molecular target: T1, human Factor XIIa-alpha (human, UniProt P00748 20-615)
T1 sequence: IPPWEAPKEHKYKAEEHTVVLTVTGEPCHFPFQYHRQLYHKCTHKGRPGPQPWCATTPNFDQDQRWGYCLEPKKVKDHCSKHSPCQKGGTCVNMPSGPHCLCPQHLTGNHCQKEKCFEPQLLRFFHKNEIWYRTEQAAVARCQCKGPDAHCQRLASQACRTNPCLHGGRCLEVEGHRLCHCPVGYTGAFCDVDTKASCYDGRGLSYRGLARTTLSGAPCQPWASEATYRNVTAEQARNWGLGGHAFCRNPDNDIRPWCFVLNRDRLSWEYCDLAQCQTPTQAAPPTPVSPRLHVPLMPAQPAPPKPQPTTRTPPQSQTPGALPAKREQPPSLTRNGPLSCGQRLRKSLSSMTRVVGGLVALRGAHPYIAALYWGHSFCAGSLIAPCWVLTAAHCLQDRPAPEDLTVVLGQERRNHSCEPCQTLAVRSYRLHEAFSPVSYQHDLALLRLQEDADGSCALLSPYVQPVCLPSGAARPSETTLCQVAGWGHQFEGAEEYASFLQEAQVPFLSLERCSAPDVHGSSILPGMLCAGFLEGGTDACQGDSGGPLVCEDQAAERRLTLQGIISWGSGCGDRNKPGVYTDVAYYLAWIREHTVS
Experiment: cell-based or functional assay
Listed below: % Inhibition, ratio FXIIa-alpha:Antibody 1:10 values for each entry.
Output should be the measured figure followed by the unit it is expressed in.

{"BINDER": "monoclonal antibody 3F7 (fully human IgG4/lambda) (antibody, V domains shown, also called 3F7 mAb; MAb 3F7) VH: EVQLLESGGGLVQPGGSLRLSCAASGFTFSKYIMQWVRQAPGKGLEWVSGIRPSGGTTVYADSVKGRFTISRDNSKNTLYLQMNSLRAEDTAVYYCARALPRSGYLISPHYYYYALDVWGQGTTVTVSS VL: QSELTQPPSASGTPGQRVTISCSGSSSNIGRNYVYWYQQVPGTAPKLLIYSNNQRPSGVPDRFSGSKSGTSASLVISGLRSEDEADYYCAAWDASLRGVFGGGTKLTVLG", "RESULT": "100%"}

Attention now turns to another entry.
Query :: Using the record for VR24 (antibody, V domains shown) VH: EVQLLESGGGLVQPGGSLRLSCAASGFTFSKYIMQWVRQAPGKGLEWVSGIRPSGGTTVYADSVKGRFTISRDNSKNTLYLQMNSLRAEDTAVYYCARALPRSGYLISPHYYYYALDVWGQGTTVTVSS VL: QSVLTQPPSASGTPGQRVTISCSGSSEMTVHHYVYWYQQLPGTAPKLLIYSNNQRPSGVPDRFSGSKSGTSASLAISGLRSEDEADYYCAAWDASLRGVFGGGTKLTVLG , report its % Inhibition, ratio FXIIa-alpha:Antibody 1:10.
Result :: 100%
